Target: rhNav1.7α+β1-β2-β3 (rhesus monkey α subunit with human β …)
Assay: cell-based or functional assay
Listing: single pulse IC50 of selected binders
Numeric answer only, unit nM assumed.

>>> readout_value("F010300990 (VHH, vs F0103275B05: S27P, I28V, S33R, S50Y, N53P, T101I) VHH: EVQLVESGGGLVQPGGSLRLSCAASGPVFNINRMAWYRRAPGKQRELVAYSTPGGSTNYADSVKGRFTISRDNAKRVYLQMNSLTPEDTAVYYCNALLQPSIYDISRIYWGQGTLVTVSS")
100
>>> readout_value("F010300477 (VHH, vs F0103275B05: A94W) VHH: EVQLVESGGGLVQPGGSLRLSCAASGSIFNINSMAWYRRAPGKQRELVASSTNGGSTNYADSVKGRFTISRDNAKRVYLQMNSLTPEDTAVYYCNWLLQPSIYDISRTYWGQGTLVTVSS")
1200
>>> readout_value("F010300684 (VHH, vs F0103275B05: S27P, I28V, I31W, N53P, N93R, T101I) VHH: EVQLVESGGGLVQPGGSLRLSCAASGPVFNWNSMAWYRRAPGKQRELVASSTPGGSTNYADSVKGRFTISRDNAKRVYLQMNSLTPEDTAVYYCRALLQPSIYDISRIYWGQGTLVTVSS")
210

Q) Specify measured single pulse IC50 for F010300659 (VHH, also called F0103275B05(S27P, I28V, S50Y, N53P, G55W, S56D, T57W, N93R, A94W)+FLAG3-HIS6) VHH: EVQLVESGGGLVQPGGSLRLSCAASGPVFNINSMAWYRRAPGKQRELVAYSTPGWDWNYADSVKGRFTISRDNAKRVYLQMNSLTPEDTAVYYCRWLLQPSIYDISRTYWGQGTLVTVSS .
A) 180
